Attribution: ChEMBL document CHEMBL3301361

assay.info: in vitro
condition.details: human, plasma, PPB
// assign Fulfilled if fraction unbound at 5 h falls strictly below 0.1, else Not fulfilled (ties count as Not fulfilled)

CC(C)NC(=O)c1cc2c(-n3ccc(C(F)(F)F)n3)c(-c3cncc(C(=O)O)c3)cnc2[nH]1 | Not fulfilled
Cc1cc(C)nc(SCC(N)=O)n1 | Not fulfilled

Lookup: Strictly below 0.1: is that where fraction unbound at 5 h of NC1=NC(c2ccnc(C(F)(F)F)c2)(c2ccc(F)c(-c3cncnc3)c2)c2cccc(F)c21 (stereo unspecified) sits?
Found: Fulfilled

Lookup: Strictly below 0.1: is that where fraction unbound at 5 h of Cc1cc(Nc2cnc(C#N)c(N[C@@H](C)c3ccc(F)cn3)n2)n[nH]1 sits?
Found: Not fulfilled

Lookup: Strictly below 0.1: is that where fraction unbound at 5 h of Cc1cccc(Oc2cc(CN3CCC[C@H](n4cc(C)c(=O)[nH]c4=O)C3)ccc2C(=O)O)c1 sits?
Found: Fulfilled

Lookup: Strictly below 0.1: is that where fraction unbound at 5 h of Cc1cc(CN2Cc3ccccc3C2C(=O)Nc2ccc(Cl)cc2Cl)ccc1OCC(=O)O (stereo unspecified) sits?
Found: Fulfilled

Lookup: Strictly below 0.1: is that where fraction unbound at 5 h of Nc1scc2c(C(=O)NC3CC3)nn(-c3ccc(Cl)cc3)c(=O)c12 sits?
Found: Fulfilled

Lookup: Strictly below 0.1: is that where fraction unbound at 5 h of CN(CCOc1ccc(CC2SC(=O)NC2=O)cc1)c1ccccn1 (stereo unspecified) [ROSIGLITAZONE] sits?
Found: Fulfilled

---

Measured microsomal CLint, listed per entry for reference.
assay.info: in vitro
condition.details: human, liver microsomes

CN(C)c1nc(Cc2ccc(NC(=O)c3ccc(C(F)(F)F)cc3)cc2)nc(N(C)C)c1CC(=O)O | < 3 µL/min/mg

Lookup: Would you mind telling me what microsomal CLint value was observed for N#CCC(CNc1ncc(C(F)(F)F)cc1Cl)OC(=O)c1c(F)cccc1F (stereo unspecified) ?
Found: > 150 µL/min/mg

Lookup: Would you mind telling me what microsomal CLint value was observed for Cc1nocc1C(=O)Nc1ccc(-c2ccccc2OC(F)(F)F)c(N)n1 ?
Found: < 3 µL/min/mg

---

Measured microsomal CLint, listed per entry for reference.
assay.info: in vitro
condition.details: human, liver microsomes

Recorded microsomal CLint, per entry:
Cc1ccccc1CCOCCCS(=O)(=O)CCNCCc1ccc(O)c2nc(O)sc12 | > 150 µL/min/mg
CCCSc1nc(N[C@@H]2C[C@H]2c2ccccc2)c2nnn([C@@H]3C[C@H](O)[C@@H](O)[C@H]3O)c2n1 | < 3 µL/min/mg
Nc1nc2nc(SCc3ccccc3)[nH]c(=O)c2s1 | < 3 µL/min/mg

Lookup: Would you mind telling me what microsomal CLint value was observed for Nc1nc2nc(SCc3cccc(F)c3F)[nH]c(=O)c2s1 ?
Found: < 3 µL/min/mg

---

Measured hepatocyte CLint, listed per entry for reference.
assay.info: in vitro
condition.details: hepatocytes

COc1cc2cc(-c3ccc(O)cc3O)nc(C)c2cc1OC | > 150 µL/min/1e6 cells
CCOc1nc2cccc(C(=O)O)c2n1Cc1ccc(-c2ccccc2-c2nnn[nH]2)cc1 | < 3 µL/min/1e6 cells
CCn1c(SCC(=O)Nc2cc(C)on2)nnc1-c1ccccc1 | > 150 µL/min/1e6 cells

Lookup: Would you mind telling me what hepatocyte CLint value was observed for O=C(Nc1c[nH]nc1-c1nc2cc(CN3CCOCC3)ccc2[nH]1)NC1CC1 ?
Found: < 3 µL/min/1e6 cells

Lookup: Would you mind telling me what hepatocyte CLint value was observed for Cc1cc(C)nc(SCC(N)=O)n1 ?
Found: < 3 µL/min/1e6 cells
